biological target: androgen receptor (Homo sapiens, UniProt P10275, T878A); construct: host or cells: LNCaP.FGC; test: Androgen receptor degradation assay using Western blot analysis; format: cell-based; conditions: 24 h, read-out: Androgen Receptor Remaining (%), LNCaP.FGC cells, 100 nM, 24 hr, normalized to GAPDH, untreated cells = 100%
Sequence (P10275 whole entry T878A): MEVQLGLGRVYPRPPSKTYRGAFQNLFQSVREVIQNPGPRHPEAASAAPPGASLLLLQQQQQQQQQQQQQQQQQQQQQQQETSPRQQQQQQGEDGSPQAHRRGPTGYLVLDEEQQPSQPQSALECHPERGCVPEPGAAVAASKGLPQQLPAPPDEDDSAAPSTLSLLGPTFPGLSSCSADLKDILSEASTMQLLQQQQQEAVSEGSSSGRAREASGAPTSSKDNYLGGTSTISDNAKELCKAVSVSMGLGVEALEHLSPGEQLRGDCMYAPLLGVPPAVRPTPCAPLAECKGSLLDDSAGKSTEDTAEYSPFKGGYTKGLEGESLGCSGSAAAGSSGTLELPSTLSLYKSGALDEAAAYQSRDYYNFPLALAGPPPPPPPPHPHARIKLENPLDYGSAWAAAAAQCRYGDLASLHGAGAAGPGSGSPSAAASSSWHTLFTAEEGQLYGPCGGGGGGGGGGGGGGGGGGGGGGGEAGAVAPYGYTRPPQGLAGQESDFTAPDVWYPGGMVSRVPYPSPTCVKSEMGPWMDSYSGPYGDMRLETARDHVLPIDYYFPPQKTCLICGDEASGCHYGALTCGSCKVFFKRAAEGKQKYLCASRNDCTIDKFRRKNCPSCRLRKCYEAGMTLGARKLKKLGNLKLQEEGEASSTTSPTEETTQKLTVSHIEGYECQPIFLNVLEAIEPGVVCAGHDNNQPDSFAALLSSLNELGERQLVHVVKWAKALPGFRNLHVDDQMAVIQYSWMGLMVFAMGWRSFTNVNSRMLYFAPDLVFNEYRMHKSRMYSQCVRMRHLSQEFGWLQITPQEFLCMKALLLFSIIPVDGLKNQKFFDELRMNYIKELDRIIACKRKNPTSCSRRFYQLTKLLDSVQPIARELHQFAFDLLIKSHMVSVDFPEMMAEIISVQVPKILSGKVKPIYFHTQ
Sequence (Q96SW2 whole entry partner): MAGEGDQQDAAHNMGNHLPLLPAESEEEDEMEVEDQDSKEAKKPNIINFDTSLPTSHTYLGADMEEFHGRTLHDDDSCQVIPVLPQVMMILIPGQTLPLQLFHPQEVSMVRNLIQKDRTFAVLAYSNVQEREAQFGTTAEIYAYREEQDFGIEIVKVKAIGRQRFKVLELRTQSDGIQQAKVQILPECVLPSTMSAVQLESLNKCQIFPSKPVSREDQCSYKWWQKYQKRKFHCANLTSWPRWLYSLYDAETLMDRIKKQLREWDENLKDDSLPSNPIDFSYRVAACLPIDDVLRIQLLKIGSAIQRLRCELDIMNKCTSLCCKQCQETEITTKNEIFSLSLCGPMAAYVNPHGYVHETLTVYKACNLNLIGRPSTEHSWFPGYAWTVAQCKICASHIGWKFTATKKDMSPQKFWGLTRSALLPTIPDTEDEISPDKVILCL
endpoint: remaining activity at 0.1 µM
Give your result as the value with the unit written after it.

CCn1c2c(c3ccc(OCCCN4CCC5(CC4)CN(c4ccc(C(=O)N[C@H]6C(C)(C)[C@H](Oc7ccc(C#N)c(Cl)c7)C6(C)C)nn4)C5)cc31)C(=O)N(C1CCC(=O)NC1=O)C2=O (some centres unmarked): 36%

Please report the recorded remaining activity at 0.1 µM for CCn1c2c(c3ccc(OCC(=O)N4CCC5(CC4)CN(c4ccc(C(=O)N[C@H]6CC[C@H](N(C)c7ccc(C#N)c(Cl)c7)CC6)nn4)C5)cc31)C(=O)N(C1CCC(=O)N(CO)C1=O)C2=O (some centres unmarked) .
63%

What value of remaining activity at 0.1 µM has been recorded for this entry: CCn1c2c(c3ccc(OCC(=O)N4CC5(CCN(c6ccc(C(=O)N[C@H]7CC[C@H](Oc8ccc(C#N)c(Cl)c8)CC7)nn6)CC5)C4)cc31)C(=O)N(C1CCC(=O)NC1=O)C2=O (some centres unmarked)
58%

Tell me the measured remaining activity at 0.1 µM of CCn1c2c(c3ccc(OCC(=O)N4CCC5(CCN(c6ccc(C(=O)N[C@H]7CC[C@H](Oc8ccc(C#N)c(Cl)c8)CC7)nn6)C5)C4)cc31)C(=O)N(C1CCC(=O)N(CO)C1=O)C2=O (some centres unmarked) , please.
17%

What value of remaining activity at 0.1 µM has been recorded for this entry: CCn1c2c(c3ccc(OCCCN4C5CCC4CN(c4ccc(C(=O)N[C@H]6CC[C@H](Oc7ccc(C#N)c(Cl)c7)CC6)nn4)C5)cc31)C(=O)N(C1CCC(=O)NC1=O)C2=O (some centres unmarked)
19%

Data request, read-out remaining activity at 0.1 µM, for CCn1c2c(c3ccc(OCC(=O)N4CCC5(CCN(c6ccc(C(=O)N[C@H]7CC[C@H](Oc8ccc(C#N)c(Cl)c8)CC7)nn6)C5)C4)cc31)C(=O)N(C1CCC(=O)NC1=O)C2=O (some centres unmarked)
17%

remaining activity at 0.1 µM for CCn1c2c(c3ccc(OCCCN4CC5(CCN(c6ccc(C(=O)N[C@H]7CC[C@H](Oc8ccc(C#N)c(Cl)c8)CC7)nn6)CC5)C4)cc31)C(=O)N(C1CCC(=O)N(COCC[Si](C)(C)C)C1=O)C2=O (some centres unmarked) ?
89%

I'd like to know its remaining activity at 0.1 µM. The molecule in question is CCn1c2c(c3ccc(OCCN4C5CCC4CN(c4ccc(C(=O)N[C@H]6CC[C@H](Oc7ccc(C#N)c(Cl)c7)CC6)nn4)C5)cc31)C(=O)N(C1CCC(=O)NC1=O)C2=O (some centres unmarked)
40%

###

molecular target: androgen receptor (Homo sapiens, UniProt P10275, T878A); construct: host or cells: LNCaP.FGC; experiment: Androgen receptor degradation assay using Western blot analysis; type: cell-based; details: read-out: AR DC50 (concentration needed for 50% AR degradation); LNCaP.FGC cells, serial 10x dilutions from 100 nM
endpoint: DC50

// fetch androgen receptor (Homo sapiens, UniProt P10275, T878A) DC50 for CCn1c2c(c3ccc(OCCN4CCCN(c5ccc(C(=O)N[C@H]6CC[C@H](Oc7ccc(C#N)c(Cl)c7)CC6)nn5)CC4)cc31)C(=O)N(C1CCC(=O)NC1=O)C2=O (stereo partly shown) [Compound 52]
10 to 25 nM

Report DC50 for CCn1c2c(c3ccc(OCCCN4CCN(c5ccc(C(=O)N[C@H]6CC[C@H](Oc7ccc(C#N)c(Cl)c7)CC6)nn5)[C@@H](C)C4)cc31)C(=O)N(C1CCC(=O)NC1=O)C2=O (stereo partly shown) [Compound 65] tested on androgen receptor (Homo sapiens, UniProt P10275, T878A).
25 to 100 nM

Find the measured DC50: item CCn1c2c(c3ccc(OCC(=O)NCC4CCN(c5ccc(C(=O)N[C@H]6CC[C@H](N(C)c7ccc(C#N)c(Cl)c7)CC6)nn5)CC4)cc31)C(=O)N(C1CCC(=O)NC1=O)C2=O (stereo partly shown) [Compound 142] , target or system androgen receptor (Homo sapiens, UniProt P10275, T878A).
25 to 100 nM

Observed DC50 on androgen receptor (Homo sapiens, UniProt P10275, T878A) for CCn1c2c(c3ccc(OCCN4CCC5(CCN(c6ccc(C(=O)N[C@H]7CC[C@H](Oc8ccc(C#N)c(Cl)c8)CC7)nn6)C5)C4)cc31)C(=O)N(C1CCC(=O)NC1=O)C2=O (stereo partly shown) [Compound 133] , please.
10 to 25 nM
